The measured values listed here are drawn from patent US6506766B1.

# SUBJECT_OF_TEST: human glucocorticoid receptor-α [GRX] isoform (Homo sapiens, UniProt P04150)
# Construct: host or cells: insect SF21 cells (baculovirus)
# Sequence (P04150 1-777): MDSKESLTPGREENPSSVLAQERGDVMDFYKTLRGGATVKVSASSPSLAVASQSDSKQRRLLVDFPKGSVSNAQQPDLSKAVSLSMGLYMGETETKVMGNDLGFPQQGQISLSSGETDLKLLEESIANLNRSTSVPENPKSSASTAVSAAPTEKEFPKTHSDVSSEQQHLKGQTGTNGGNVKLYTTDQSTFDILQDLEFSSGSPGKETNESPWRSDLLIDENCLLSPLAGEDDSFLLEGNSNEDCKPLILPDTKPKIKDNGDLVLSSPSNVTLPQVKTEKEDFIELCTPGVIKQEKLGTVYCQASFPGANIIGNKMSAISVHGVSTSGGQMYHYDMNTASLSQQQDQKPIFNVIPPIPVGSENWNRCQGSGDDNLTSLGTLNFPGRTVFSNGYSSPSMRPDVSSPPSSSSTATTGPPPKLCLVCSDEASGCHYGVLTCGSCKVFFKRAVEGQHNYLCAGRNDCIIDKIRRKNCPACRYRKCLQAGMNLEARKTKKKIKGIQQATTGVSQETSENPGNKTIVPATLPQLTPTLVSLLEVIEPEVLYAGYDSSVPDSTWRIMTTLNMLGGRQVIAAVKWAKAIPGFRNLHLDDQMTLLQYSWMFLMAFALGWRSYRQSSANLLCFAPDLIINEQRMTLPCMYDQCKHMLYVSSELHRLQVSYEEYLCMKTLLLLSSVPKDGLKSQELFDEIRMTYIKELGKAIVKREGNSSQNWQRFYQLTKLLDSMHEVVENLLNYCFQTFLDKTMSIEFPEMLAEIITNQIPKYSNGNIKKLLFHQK
# PROCEDURE_TEXT: Radioligand binding with human glucocorticoid receptor cytosol ([3H]-dexamethasone competition)
# CONDITION_NOTES: GRX cytosol expressed in insect SF21 cells, [3H]-Dex ~0.9 nM, 4° C. overnight; Ki by Cheng-Prusoff, KL ~[…]; read-out: Ki (nM) GR
Could you please report measured Ki for the items listed next?
Give bare numbers, in nM.

compound="COc1cccc2c1-c1ccc3c(c1C(CC(=O)NC1CC1)O2)C(C)=CC(C)(C)N3 (stereo not shown) [Example 65]" reported_result=591
compound="COc1c(O)ccc2c1-c1ccc3c(c1C(c1cccc(OCSC)c1)O2)C(C)=CC(C)(C)N3 (stereo not shown) [Example 400]" reported_result=3.5
compound="CC1=CC(C)(C)Nc2ccc3c(c21)C(c1ccccc1)Oc1ccc(Cl)c(OC(F)F)c1-3 (stereo not shown) [Example 231]" reported_result=30.2

Could you now consider this next compound?
input: Input C=CCC1Oc2cccc(C=C)c2-c2ccc3c(c21)C(C)=CC(C)(C)N3 (stereo not shown) [Example 5] , output reported Ki.
output: 357

====

# SUBJECT_OF_TEST: human progesterone receptor-A [PRA] isoform (Homo sapiens, UniProt P06401)
# Construct: host or cells: insect SF21 cells (baculovirus)
# PROCEDURE_TEXT: Radioligand binding with human progesterone receptor cytosol ([3H]-progesterone competition)
# CONDITION_NOTES: PRA cytosol expressed in insect SF21 cells, [3H]Prog ~0.8 nM, 4° C. overnight; Ki by Cheng-Prusoff, KL ~4.5 nM; read-out: Ki (nM) PR
Ki strictly under 1000 nM means Satisfied; at 1000 nM or over means Not satisfied.

compound="COc1c(O)ccc2c1-c1ccc3c(c1C(C1C=CCCC1)O2)C(C)=CC(C)(C)N3 (single isomer, unassigned; (+)) [Example 284]" discrete_label="Not satisfied"
compound=COc1c(O)ccc2c1-c1ccc3c(c1[C@@H]([C@@H]1C=C(C)CCC1)O2)C(C)=CC(C)(C)N3 discrete_label="Not satisfied"
compound="CCCCCCOc1cccc(C2Oc3cccc(OC)c3-c3ccc4c(c32)C(C)=CC(C)(C)N4)c1 (stereo not shown)" discrete_label="Not satisfied"
compound="C=C(COC(C)=O)CC1Oc2cccc(OC)c2-c2ccc3c(c21)C(C)=CC(C)(C)N3 (stereo not shown)" discrete_label="Not satisfied"
compound="C#CCOc1ccc2c(c1OC)-c1ccc3c(c1C(CC=C)O2)C(C)=CC(C)(C)N3 (stereo not shown)" discrete_label="Not satisfied"

input: Is it true that Ki reported for CC1=CC(C)(C)Nc2ccc3c(c21)C(c1cccs1)Oc1ccc(O)c(Cl)c1-3 (stereo not shown) is less than 1000 nM?
output: Satisfied

input: # check: Ki < 1000 nM for COc1c(O)ccc2c1-c1ccc3c(c1C(c1cccc(OCSC)c1)O2)C(C)=CC(C)(C)N3 (stereo not shown)
output: Not satisfied

input: Please state whether Ki is below 1000 nM for COc1c(O)ccc2c1-c1ccc3c(c1C(c1cccc(O)c1)O2)C(C)=CC(C)(C)N3 (stereo not shown)
output: Not satisfied

input: Dear reviewer, please state whether COCC1=CC(C2Oc3cccc(OC)c3-c3ccc4c(c32)C(C)=CC(C)(C)N4)CCC1 (stereo not shown) [Example 164] has Ki strictly beneath 1000 nM.
output: Not satisfied

input: # check: Ki < 1000 nM for CCC1=C[C@@H]([C@H]2Oc3ccc(O)c(OC)c3-c3ccc4c(c32)C(C)=CC(C)(C)N4)CCC1
output: Satisfied

input: Hello, is Ki of the following compound strictly smaller than 1000 nM? COc1cccc2c1-c1ccc3c(c1C(c1cccc(OCCN4CCCCC4)c1)O2)C(C)=CC(C)(C)N3 (stereo not shown)
output: Not satisfied

input: Lab log: compare recorded Ki with 1000 nM; is it strictly lower for CC1=CC(C)(C)Nc2ccc3c(c21)C(c1ccccc1)Oc1cccc(Cl)c1-3 (racemic) ?
output: Satisfied

input: Hello, I'm reviewing records and need to know if Ki of C#CCOc1cccc2c1-c1ccc3c(c1C(c1ccccc1)O2)C(C)=CC(C)(C)N3 (stereo not shown) is below 1000 nM. Could you check?
output: Not satisfied

input: Decide: Ki of COc1cccc2c1-c1ccc3c(c1C(c1ccccn1)O2)C(C)=CC(C)(C)N3 (stereo not shown) strictly below 1000 nM?
output: Not satisfied

input: # TODO verify Ki < 1000 nM strictly for this compound: C=CC1(C2Oc3cccc(OC)c3-c3ccc4c(c32)C(C)=CC(C)(C)N4)CCCCC1 (stereo not shown)
output: Not satisfied

input: Item CNC(=O)OCCC1Oc2cccc(OC)c2-c2ccc3c(c21)C(C)=CC(C)(C)N3 (stereo not shown) : Ki beneath 1000 nM, strictly?
output: Not satisfied

====

# SUBJECT_OF_TEST: human progesterone receptor-A [PRA] isoform (Homo sapiens)
# Construct: host or cells: insect SF21 cells (baculovirus)
# Sequence (P06401 1-769 isoform P06401-2): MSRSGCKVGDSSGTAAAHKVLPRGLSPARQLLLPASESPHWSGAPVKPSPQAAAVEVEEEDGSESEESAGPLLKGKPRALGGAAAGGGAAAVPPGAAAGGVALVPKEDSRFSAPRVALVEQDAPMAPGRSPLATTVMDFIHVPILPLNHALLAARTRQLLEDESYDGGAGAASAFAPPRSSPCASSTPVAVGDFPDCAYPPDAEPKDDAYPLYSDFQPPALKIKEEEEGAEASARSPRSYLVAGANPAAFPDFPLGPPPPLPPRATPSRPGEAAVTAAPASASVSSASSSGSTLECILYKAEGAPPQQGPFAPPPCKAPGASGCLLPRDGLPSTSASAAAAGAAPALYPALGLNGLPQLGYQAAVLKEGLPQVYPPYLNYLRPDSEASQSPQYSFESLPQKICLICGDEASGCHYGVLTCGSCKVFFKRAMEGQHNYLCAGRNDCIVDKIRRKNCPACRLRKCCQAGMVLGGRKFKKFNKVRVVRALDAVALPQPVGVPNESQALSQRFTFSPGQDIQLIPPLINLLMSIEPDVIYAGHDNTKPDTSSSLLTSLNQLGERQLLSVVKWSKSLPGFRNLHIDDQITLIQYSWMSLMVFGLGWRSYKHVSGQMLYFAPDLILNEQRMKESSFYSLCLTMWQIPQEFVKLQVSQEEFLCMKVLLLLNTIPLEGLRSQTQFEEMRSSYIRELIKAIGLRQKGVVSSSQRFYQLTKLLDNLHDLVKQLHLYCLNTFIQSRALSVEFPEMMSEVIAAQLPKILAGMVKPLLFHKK
# PROCEDURE_TEXT: Radioligand binding with human progesterone receptor cytosol ([3H]-progesterone competition)
# CONDITION_NOTES: PRA cytosol expressed in insect SF21 cells, [3H]Prog ~0.8 nM, 4° C. overnight; Ki by Cheng-Prusoff, KL ~4.5 nM; read-out: Ki (nM) PR
QUANTITY_MEASURED: Ki (nM)
One number for each entry, in nM.

Worked set:
compound="C=CCC1Oc2cccc(C#N)c2-c2ccc3c(c21)C(C)=CC(C)(C)N3 (centres unmarked) [Example 327]" reported_result=1460
compound="COc1cccc2c1-c1ccc3c(c1C(CC=C(F)F)O2)C(C)=CC(C)(C)N3 (centres unmarked) [Example 193]" reported_result=2180
compound="COc1cccc2c1-c1ccc3c(c1C(=Cc1ccccc1F)O2)C(C)=CC(C)(C)N3 [Example 126]" reported_result=1410
compound="C=CCC1Oc2cccc(SC)c2-c2ccc3c(c21)C(C)=CC(C)(C)N3 (centres unmarked) [Example 343]" reported_result=4700
compound="COc1cccc2c1-c1ccc3c(c1C(c1cccc(OCC4CC4)c1)O2)C(C)=CC(C)(C)N3 (centres unmarked) [Example 88]" reported_result=15300
compound="CC1=CC(C)(C)Nc2ccc3c(c21)C(c1ccccc1)Oc1cccc(OC(F)(F)Br)c1-3 (centres unmarked) [Example 346]" reported_result=5110

List the reported Ki of each compound below.
1. CC1=C[C@H]([C@@H]2Oc3ccc(O)c(Cl)c3-c3ccc4c(c32)C(C)=CC(C)(C)N4)CCC1 [Example 418]
2. COc1cccc2c1-c1ccc3c(c1C(c1cc(F)cc(F)c1)O2)C(C)=CC(C)(C)N3 (centres unmarked) [Example 34]

output:
1. 2.1
2. 4710

Hi team, please reply with Ki for each item in this list.
1. C=CCCC1Oc2ccc(O)c(OC)c2-c2ccc3c(c21)C(C)=CC(C)(C)N3 (centres unmarked) [Example 261]
2. COc1cccc2c1-c1ccc3c(c1C(CC=C1CCCC1)O2)C(C)=CC(C)(C)N3 (centres unmarked) [Example 188]
3. COc1c(O)ccc2c1-c1ccc3c(c1[C@H]([C@H]1C=CCCCC1)O2)C(C)=CC(C)(C)N3 [Example 247]
4. C=C(C)CCC1Oc2cccc(OC)c2-c2ccc3c(c21)C(C)=CC(C)(C)N3 (centres unmarked) [Example 132]
5. C=CCC1Oc2ccc(OCC)c(OC)c2-c2ccc3c(c21)C(C)=CC(C)(C)N3 (centres unmarked) [Example 292]
6. COc1c(O)ccc2c1-c1ccc3c(c1[C@H]([C@@H]1C=CCC1)O2)C(C)=CC(C)(C)N3 [Example 252]

output:
1: 161; 2: 5300; 3: 195; 4: 9890; 5: 8340; 6: 102

Below is a list of compounds. For each, state its recorded Ki.
1. C=CCC1Oc2cccc(OC)c2-c2ccc3c(c21)C(C)=CC(C)(C)N3 (centres unmarked) [Example 2]
2. C=CCC1Oc2ccc(OC)c(OC)c2-c2ccc3c(c21)C(C)=CC(C)(C)N3 (centres unmarked) [Example 130]
3. COc1c(O)ccc2c1-c1ccc3c(c1C(c1ccccc1)O2)C(C)=CC(C)(C)N3 (centres unmarked) [Example 248]

output:
1. 1700
2. 1050
3. 870

input: Give reported Ki value for COc1c(O)ccc2c1-c1ccc3c(c1C(=Cc1ccccc1)O2)C(C)=CC(C)(C)N3 [Example 430]
output: 281
